- TESTED TARGET: Human CB1 receptor (Homo sapiens, UniProt P21554)
- Construct: host or cells: CHO cells (hCB1/CHO#C3), membrane fraction prepared in house
- Sequence (P21554 whole entry): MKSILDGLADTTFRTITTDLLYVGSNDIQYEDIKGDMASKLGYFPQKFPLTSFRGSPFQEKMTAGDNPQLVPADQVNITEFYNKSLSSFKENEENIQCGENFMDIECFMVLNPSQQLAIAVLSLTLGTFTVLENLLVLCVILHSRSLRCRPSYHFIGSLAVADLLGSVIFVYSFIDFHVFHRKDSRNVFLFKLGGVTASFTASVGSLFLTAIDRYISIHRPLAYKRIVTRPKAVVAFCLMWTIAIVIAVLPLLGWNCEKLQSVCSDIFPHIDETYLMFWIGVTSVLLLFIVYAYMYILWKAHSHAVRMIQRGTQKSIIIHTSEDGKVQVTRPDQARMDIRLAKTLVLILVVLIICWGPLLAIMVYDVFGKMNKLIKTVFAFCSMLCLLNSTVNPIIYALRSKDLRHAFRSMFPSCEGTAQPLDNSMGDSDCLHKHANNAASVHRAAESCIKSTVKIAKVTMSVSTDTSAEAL
- EXPERIMENT: Human CB1 receptor binding assay ([3H]-CP55940 displacement, hCB1/CHO membrane fraction)
- RUN CONDITIONS: human CB1 receptor membrane preparation, 30° C. for 90 minutes
OBSERVATION TYPE: IC50 (nM)

Consider the worked cases shown below.
| MOLECULE | OBSERVATION TYPE | RESULT |
| --- | --- | --- |
| CN(NC(=O)c1c(C(F)(F)F)nn2c(-c3ccc(Cl)cc3)c(-c3ccccc3Cl)cnc12)c1ccccn1 [Example 309] | IC50 (nM) | + + + |
| CC(C)CNC(=O)c1cnn2c(-c3ccc(C(F)(F)F)cc3)c(-c3ccccc3Cl)cnc12 [Example 287] | IC50 (nM) | + + |
| O=C(NC1CSC1)c1cnn2c(-c3ccc(Cl)cc3)c(-c3ccccc3Cl)cnc12 [Example 324] | IC50 (nM) | + + |
| Cc1nn2c(-c3ccc(C(F)(F)F)cc3)c(-c3ccccc3Cl)cnc2c1S(=O)(=O)N1CCCC1 [Example 238] | IC50 (nM) | + + |
| CN(NC(=O)c1cnn2c(-c3ccc(Cl)cc3)c(-c3ccccc3C#N)cnc12)c1cccc(Cl)c1 [Example 253] | IC50 (nM) | + + + |
| Cc1nn2c(-c3ccc(Cl)s3)c(-c3ccccc3Cl)cnc2c1C(=O)NN(C)c1ccccn1 [Example 410] | IC50 (nM) | + + |
| Cc1nn2c(-c3ccc(Cl)cc3F)c(-c3ccccc3C#N)cnc2c1C(=O)NN1CCCC1 [Example 427] | IC50 (nM) | + + |
| CN(NC(=O)c1c(N(C)S(C)(=O)=O)nn2c(-c3ccc(Cl)cc3)c(-c3ccccc3Cl)cnc12)c1ccccn1 [Example 452] | IC50 (nM) | + + + |
| Cc1nn2c(-c3ccc(Cl)cc3)c(-c3ccccc3Cl)cnc2c1C(=O)N[C@H]1CCS(=O)(=O)C1 [Example 185] | IC50 (nM) | + + |
| O=C(NC1CCCCC1)c1cnn2c(-c3ccc(Cl)cc3)c(-c3ccccc3Cl)cnc12 [Example 10] | IC50 (nM) | + + |

List reported IC50 (nM) for each of these molecules:
1. Cc1nn2c(-c3ccc(Cl)cc3)c(-c3ccccc3Cl)cnc2c1C(=O)CN1CCS(=O)(=O)CC1 [Example 462]
2. CC(=O)Nc1nn2c(-c3ccc(Cl)cc3)c(-c3ccccc3Cl)cnc2c1C(=O)NC1CCS(=O)(=O)C1 (stereo not shown) [Example 224]
3. N#Cc1ccccc1-c1cnc2c(C(=O)NN3CCCCCC3)cnn2c1-c1ccc(Cl)cc1 [Example 252]

Resp:
1: + +; 2: + +; 3: + +

The reported numbers originate from patent US8188097B2.
